protocol-summary: Population pharmacokinetic analysis
Assay type: in vivo, human
condition-parameters: human, plasma, oral, Estimated mean t1/2, CYP2D6-inferred metabolic status PM
measure-name: half-life (h)
Answers are plain numbers, in h.

stdin: Please report the measured half-life for Br.Cc1ccc(Sc2ccccc2N2CCNCC2)c(C)c1
stdout: 104

====

protocol-summary: Population pharmacokinetic analysis
Format: in vivo, human
condition-parameters: human, plasma, oral
measure-name: Vd/F
Remember to follow the number with its unit.

stdin: Please give the documented Vd/F of Br.Cc1ccc(Sc2ccccc2N2CCNCC2)c(C)c1
stdout: 1970 L

====

protocol-summary: Population pharmacokinetic analysis
Type: in vivo, human
condition-parameters: human, plasma, im, Estimated mean t1/2, CYP2D6-inferred metabolic status IM
measure-name: half-life (h)
One number for each entry, in h.

stdin: Tell me half-life reported for Br.Cc1ccc(Sc2ccccc2N2CCNCC2)c(C)c1
stdout: 73
